system: Rhipicephalus sanguineus; test: Parasiticidal activity against Rhipicephalus sanguineus assessed as mortality after 24 hrs by brown dog tick assay; type: functional; design: concentration or dose not given beside the values
reported.metric: Activity (%)
All answers are understood in %, so give the number only.

These solved cases illustrate the format of a correct answer.
| compound.smiles | reported.metric | measured.result |
| --- | --- | --- |
| CC/C(=N\OCc1cccs1)c1cc(Cl)ccc1NS(=O)(=O)C(F)(F)F | Activity | 70 |
| CC/C(=N\OCC1CCCCC1)c1cc(Cl)ccc1NS(=O)(=O)C(F)(F)F | Activity | 100 |
| C/C(=N\Oc1cccc(Cl)c1)c1cc(Cl)ccc1NS(=O)(=O)C(F)(F)F | Activity | 47 |
| C/C(=N\OCC1CC1)c1cc(Cl)ccc1NS(=O)(=O)C(F)(F)F | Activity | 100 |

Exercise: Consider the compound C/C(=N\OC(C)(C)C)c1cc(Cl)ccc1NS(=O)(=O)C(F)(F)F and give its measured Activity.
Solution: 92

Exercise: Could you share which Activity value was measured for CCO/N=C(\C)c1ccc(F)cc1NS(=O)(=O)C(F)(F)F ?
Solution: 8

Exercise: Consider the compound shown here: CC/C(=N\OC1CCCC1)c1cc(Cl)ccc1NS(=O)(=O)C(F)(F)F What is its recorded Activity?
Solution: 100
